Where do the numbers come from? From patent US20100041597A1.

assay: In vitro toxicity test (fluorimetric DNA assay, Hoechst); type: cell-based, human; conditions: human, IMR-32 neuroblastoma cells; 125 μg/ml; 72 h; Table 13; read-out: % survival
OUTCOME MEASURE: viability at 72 h, 125 µg/mL (%)
The reply should contain only the number, in %.

viability at 72 h, 125 µg/mL lookup needed for Ac-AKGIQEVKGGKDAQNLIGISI-NH2 [PRE 5] , thanks.
93

----------
assay: In vitro toxicity test (fluorimetric DNA assay, Hoechst); assay type: cell-based, human; details: human, IMR-32 neuroblastoma cells; 2.5 mg/ml; 24 h; with pinocytic endocytosis reagent; read-out: % survival
OUTCOME MEASURE: viability at 24 h, 2500 µg/mL (%)
The reply should contain only the number, in %.

* Ac-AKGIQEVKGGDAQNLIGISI-NH2 [PRE 3] | 127

viability at 24 h, 2500 µg/mL lookup needed for Ac-KDAQNLIGISI-NH2 [PRE 4, Ac-KDAQNLIGISI-NH2] , thanks.
106
